Data provenance is patent US10214540B2.

- Test system: cultured human hepatocyte
- RUN DESCRIPTION: Evaluation of the cell toxicity using cultured human hepatocyte (ATP, Celltiter-Glo)
- Assay type: cell-based
- EXPERIMENTAL PARAMETERS: IC50 of Biological Example 4 / EC50 of Biological Example 1
For each record, write down the corresponding ratio of IC50 (hepatocyte toxicity) divided by SSTR2 agonist activity (EC50).

Some compounds with known ratio of IC50 (hepatocyte toxicity) divided by SSTR2 agonist activity (EC50) results, for comparison:
compound=Cc1cc(F)cc(-c2cncc(/C=C/c3cccc(C#N)c3)c2N2CCC(N)CC2)c1 result="1,190,000 times"
compound=Cc1cc(C)cc(NC(=O)c2cncc(-c3cc(C)cc(C)c3)c2N2CCC(CN)CC2)c1 result="6,670,000 times"
compound=Cc1cc(F)cc(-c2cncc(-c3ccc(C(F)(F)F)cc3)c2N2CCC(N)CC2)c1 result="710,000 times"

Turning now to a further record.
(Q) Quick check: ratio of IC50 (hepatocyte toxicity) divided by SSTR2 agonist activity (EC50) of Cc1cc(F)cc(-c2cncc(/C=C/c3cncc(C#N)c3)c2N2CC[C@H]3NCCO[C@@H]3C2)c1 (racemic) ?
(A) 2,030,000 times
